# System: OCI-AML2;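 further: after 48 h exposure read by CellTiter-Glo luminescence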
# measurement_description: cell viability relative to vehicle control; higher = less cytotoxic
# condition: 10 µM; SRSF2 genotype: wt/wt
Could you please report measured cell viability for the items listed next?
A number alone suffices; assume %.

Exam item: Provide cell viability value for the following compound: Cc1cc(-c2ncc(CC(=O)Nc3ccc(-c4cnccn4)cn3)cc2C)ccn1
Marked response: 63.5

Exam item: Supply recorded cell viability for O=c1cc(-c2ccccc2)oc2cc(O[C@@H]3O[C@H](CO[C@@H]4O[C@H](CO)[C@@H](O)[C@H](O)[C@H]4O)[C@@H](O)[C@H](O)[C@H]3O)c(O)c(O)c12 [Oroxin B] here.
Marked response: 98.6

Exam item: Give the measured cell viability for COc1cccc(-n2c(=O)[nH]c3cc(Cl)n(-c4ccc(-c5cccc(OC)c5O)cc4)c3c2=O)c1
Marked response: 97.3

Exam item: Give me measured cell viability, please, for this compound: Cc1cc2c(F)c(Oc3ncnn4cc(OC[C@@H](C)OC(=O)[C@H](C)N)c(C)c34)ccc2[nH]1
Marked response: 81.5

----------
# Tested on: OCI-AML2;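 further: after 48 h exposure read by CellTiter-Glo luminescence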
# measurement_description: cell viability relative to vehicle control; higher = less cytotoxic
# condition: 10 µM; SRSF2 genotype: P95H/wt
Counter-ions that a name gives are not always drawn.
Exercise: state measured cell viability for each of the compounds provided.
Please give a number only; it is taken to be in %.

Exam item: Tell me cell viability reported for OC[C@H]1O[C@@](CO)(OC[C@@]2(OC[C@@]3(O[C@H]4O[C@H](CO)[C@@H](O)[C@H](O)[C@H]4O)O[C@H](CO)[C@@H](O)[C@@H]3O)O[C@H](CO)[C@@H](O)[C@@H]2O)[C@@H](O)[C@@H]1O
Marked response: 106

Exam item: Look up and state reported cell viability for NNc1nncc2ccccc12 [Hydralazine hydrochloride]
Marked response: 106

Exam item: Look up cell viability of O=C(O)c1ccccc1-c1c2cc(Br)c(=O)c(Br)c-2oc2c(Br)c(O)c(Br)cc12 [Eosin Y Disodium] and report it.
Marked response: 91.7

Exam item: Given the compound O=C(NCc1ccccc1)c1csc(Nc2ccncn2)n1 , write its reported cell viability.
Marked response: 46

Exam item: State its cell viability for this compound: O=C(O)c1ccc(O)cc1 [4-Hydroxybenzoic acid]
Marked response: 87

Exam item: Give recorded cell viability. CCOc1ccn(-c2ccc(F)cc2)c(=O)c1C(=O)Nc1ccc(Oc2ccnc(N)c2Cl)c(F)c1
Marked response: 20.9

Exam item: Look up cell viability of Oc1ccc(-c2nc(-c3ccc(F)cc3)c(-c3ccncc3)[nH]2)cc1 and report it.
Marked response: 99.7

Exam item: Supply reported cell viability belonging to this compound: CCOCCn1c(C2CCN(CCc3ccc(C(C)(C)C(=O)O)cc3)CC2)nc2ccccc21
Marked response: 108

Exam item: Consider the compound C=CCC(=NOS(=O)(=O)O)S[C@@H]1O[C@H](CO)[C@@H](O)[C@H](O)[C@H]1O (stereo in doubt) and give its recorded cell viability.
Marked response: 101

Exam item: Using the record for COC(=O)C1=CO[C@@H](O)[C@@H]2C(CO)=CC[C@H]12 , state its measured cell viability.
Marked response: 26.4

Exam item: Provide measured cell viability value, entry: CCOC(=O)C=Cc1ccc(OC)cc1 [Ethyl 4-Methoxycinnamate]
Marked response: 84.6

Exam item: Name the recorded cell viability of the item CC(C)=C[C@H]1C[C@](C)(O)[C@@H]2[C@H]3CC[C@@H]4[C@@]5(C)CC[C@H](O[C@@H]6OC[C@H](O)[C@H](O[C@@H]7O[C@H](CO)[C@@H](O)[C@H](O)[C@H]7O[C@@H]7OC[C@@H](O)[C@H](O)[C@H]7O)[C@H]6O[C@@H]6O[C@@H](C)[C@H](O)[C@@H](O)[C@H]6O)C(C)(C)[C@@H]5CC[C@@]4(C)[C@@]34CO[C@@]2(C4)O1 [Jujuboside B] in your answer.
Marked response: 97.2

Exam item: Identify the reported cell viability for the following entry. CC1=C(/C=C/C(C)=C/C=C/C(C)=C\C(=O)O)C(C)(C)CCC1
Marked response: 15.7

Exam item: Read the entry COc1cc(OCc2cccc(-c3ccccc3)c2C)cc(OC)c1CN1CCCC[C@H]1C(=O)O and write its reported cell viability.
Marked response: 68.2
